The entries below come with measured MIC K. pneumoniae ATCC 13883 values attached.
# System: K. pneumoniae ATCC 13883
# Format: cell-based, Klebsiella pneumoniae
# Study conditions: ATCC 13883
Peptide text beside a SMILES is read from it.
I only need the number, in µM, no unit after it.

| Compound | Units of measure | MIC K. pneumoniae ATCC 13883 |
| --- | --- | --- |
| CC[C@H](C)[C@H](NC(=O)[C@@H](N)CCCCN)C(=O)N[C@@H](Cc1c[nH]c2ccccc12)C(=O)N[C@@H](Cc1c[nH]c2ccccc12)C(=O)N[C@@H](Cc1c[nH]c2ccccc12)C(=O)N[C@@H](Cc1c[nH]c2ccccc12)C(=O)N[C@@H](CC(C)C)C(=O)N[C@@H](CCCNC(=N)N)C(=O)O [WW296, KIWWWWLR] (H-KIWWWWLR-OH; N-terminus and C-terminus assumed) | µM | 12.5 |
| CC[C@H](C)[C@H](NC(=O)[C@H](CCCCN)NC(=O)[C@H](CCCNC(=N)N)NC(=O)[C@H](CC(C)C)NC(=O)[C@@H](N)Cc1c[nH]c2ccccc12)C(=O)N[C@@H](Cc1c[nH]c2ccccc12)C(=O)N[C@@H](Cc1c[nH]c2ccccc12)C(=O)N[C@@H](Cc1c[nH]c2ccccc12)C(=O)O [WW293, WLRKIWWW] (H-WLRKIWWW-OH; N-terminus and C-terminus assumed) | µM | 25 |

From here, focus on the item given below.
Exercise: Item CC[C@H](C)[C@H](NC(=O)[C@H](CCCCN)NC(=O)[C@H](CCCNC(=N)N)NC(=O)[C@H](CC(C)C)NC(=O)[C@H](Cc1c[nH]c2ccccc12)NC(=O)[C@H](Cc1c[nH]c2ccccc12)NC(=O)[C@@H](N)Cc1c[nH]c2ccccc12)C(=O)N[C@@H](Cc1c[nH]c2ccccc12)C(N)=O [WW291, WWWLRKIW] (H-WWWLRKIW-NH2; N-terminus and C-terminus assumed) with K. pneumoniae ATCC 13883 - MIC K. pneumoniae ATCC 13883?
Key: 12.5

* * *

# Method summary: Hemolytic assay
# Format: cell-based, human
# Study conditions: human
# Procedure: Briefly, human red blood cells (hRBCs) were washed three times with phosphate buffer saline (PBS) and diluted to a 2% solution (v/v). […] The amount of hemoglobin released was measured at 545 nm. The percent lysis was calculated by assuming 100% release when human blood cells were treated with 2% Triton™ X-100, and 0% release when incubated with PBS buffer. […] The cell selectivity index (CSI) was calculated as the ratio between HL50 and MIC of the corresponding peptide against a select pathogenic species. […]
Peptide text beside a SMILES is read from it.
Measured endpoint: HC50 at 1 hour

Exercise: Which measured HC50 at 1 hour value corresponds to CC(C)C[C@H](NC(=O)[C@H](Cc1c[nH]c2ccccc12)NC(=O)[C@H](Cc1c[nH]c2ccccc12)NC(=O)[C@@H](N)Cc1c[nH]c2ccccc12)C(=O)N[C@@H](CCCNC(=N)N)C(=O)N[C@@H](CCCNC(=N)N)C(=O)N[C@@H](CCCNC(=N)N)C(=O)N[C@@H](Cc1c[nH]c2ccccc12)C(N)=O [Horine, WWWLRRRW] (H-WWWLRRRW-NH2; N-terminus and C-terminus assumed) ?
Key: > 200 µM

* * *

# Method summary: Cell viability assay (MTS)
# Format: cell-based
# Study conditions: human, HEK-293 (human embryonic kidney) cells; HEK293; read-out: LC50
Peptide text beside a SMILES is read from it.
The entries below come with measured CC50 at 1 hour values attached.

Exercise: Which measured CC50 at 1 hour value corresponds to CC(C)C[C@H](NC(=O)[C@H](Cc1c[nH]c2ccccc12)NC(=O)[C@H](Cc1c[nH]c2ccccc12)NC(=O)[C@@H](N)Cc1c[nH]c2ccccc12)C(=O)N[C@@H](CCCNC(=N)N)C(=O)N[C@@H](CCCNC(=N)N)C(=O)N[C@@H](CCCNC(=N)N)C(=O)N[C@@H](Cc1c[nH]c2ccccc12)C(N)=O [Horine, WWWLRRRW] (H-WWWLRRRW-NH2; N-terminus and C-terminus assumed) ?
Key: > 100 µM

Exercise: Which measured CC50 at 1 hour value corresponds to CC(C)[C@H](NC(=O)[C@H](Cc1c[nH]c2ccccc12)NC(=O)[C@H](Cc1c[nH]c2ccccc12)NC(=O)[C@H](Cc1c[nH]c2ccccc12)NC(=O)[C@H](Cc1c[nH]c2ccccc12)NC(=O)[C@H](CCCNC(=N)N)NC(=O)[C@H](CCCNC(=N)N)NC(=O)[C@@H](N)CCCNC(=N)N)C(N)=O [Verine, RRRWWWWV] (H-RRRWWWWV-NH2; N-terminus and C-terminus assumed) ?
Key: > 80 µM
